target: T1, Full-length isoform 165 of human VEGF-A (Homo sapiens, VEGF-A isoform 165, UniProt P15692-4); assay: SPR; Biacore T200, 25 °C, PBS with 0.05% Tween 20 and 3.4 mM EDTA; VEGF-A amine-coupled to a CM-5 chip; Fab injected in single cycle kinetics with five increasing concentrations; double referenced; fit to a 1:1 Langmuir binding model; conditions: both partners purified
T1 construct: VEGF-A isoform 165, human; Immobilised by amine coupling for SPR; Made in HEK cells, so probably the secreted 165-residue form without signal peptide (surmise); source: HEK, recombinant, purified
T1 sequence (P15692 other isoform, or with tags, fused parts or gaps): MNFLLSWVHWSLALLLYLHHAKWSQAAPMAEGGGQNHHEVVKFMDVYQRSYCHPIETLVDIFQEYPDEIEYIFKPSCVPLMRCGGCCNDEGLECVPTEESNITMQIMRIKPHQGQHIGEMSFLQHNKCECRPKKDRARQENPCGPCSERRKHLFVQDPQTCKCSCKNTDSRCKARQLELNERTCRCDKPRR
Exercise: for every item that follows, state its recorded Kd.
Numbers only, in µM.

Field: example entries. Status: answers known.
Binder | Recorded endpoint | Experimental result
bH1 Fab H3 variant 14_0688 (Fab, V domains shown, source: CHO-3E7, co-transfected, purified from supernatant (HisTrap IMAC, SEC Superdex-200)) VH: EVQLVESGGGLVQPGGSLRLSCAASGFNIKDTYIHWVRQAPGKGLEWVARIYPTNGYTRYADSVKGRFTISADTSKNTAYLQMNSLRAEDTAVYYCARSGRDAYNYYFDSWGQGTLVTVSS VL: DIQMTQSPSSLSASVGDRVTITCRASQDIPRSISGYVAWYQQKPGKAPKLLIYWGSYLYSGVPSRFSGSGSGTDFTLTISSLQPEDFATYYCQQHYTTPPTFGQGTKVEIK | Kd | 3.6
bH1 Fab H3 variant 14_0490 (Fab, V domains shown, source: CHO-3E7, co-transfected, purified from supernatant (HisTrap IMAC, SEC Superdex-200)) VH: EVQLVESGGGLVQPGGSLRLSCAASGFNIKDTYIHWVRQAPGKGLEWVARIYPTNGYTRYADSVKGRFTISADTSKNTAYLQMNSLRAEDTAVYYCARGNEAGYYYGMDVWGQGTLVTVSS VL: DIQMTQSPSSLSASVGDRVTITCRASQDIPRSISGYVAWYQQKPGKAPKLLIYWGSYLYSGVPSRFSGSGSGTDFTLTISSLQPEDFATYYCQQHYTTPPTFGQGTKVEIK | Kd | 3.59
bH1 Fab H3 variant 14_0905 (Fab, V domains shown, source: CHO-3E7, co-transfected, purified from supernatant (HisTrap IMAC, SEC Superdex-200)) VH: EVQLVESGGGLVQPGGSLRLSCAASGFNIKDTYIHWVRQAPGKGLEWVARIYPTNGYTRYADSVKGRFTISADTSKNTAYLQMNSLRAEDTAVYYCVRGGYLRDYYGMDVWGQGTLVTVSS VL: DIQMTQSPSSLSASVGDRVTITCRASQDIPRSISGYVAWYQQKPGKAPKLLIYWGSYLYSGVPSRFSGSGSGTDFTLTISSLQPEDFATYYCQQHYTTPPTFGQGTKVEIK | Kd | 5

# input for lookup
Measured Kd, bH1 Fab H3 variant 14_0129 (Fab, V domains shown, source: CHO-3E7, co-transfected, purified from supernatant (HisTrap IMAC, SEC Superdex-200)) VH: EVQLVESGGGLVQPGGSLRLSCAASGFNIKDTYIHWVRQAPGKGLEWVARIYPTNGYTRYADSVKGRFTISADTSKNTAYLQMNSLRAEDTAVYYCAKLGGQGSYYHFDYWGQGTLVTVSS VL: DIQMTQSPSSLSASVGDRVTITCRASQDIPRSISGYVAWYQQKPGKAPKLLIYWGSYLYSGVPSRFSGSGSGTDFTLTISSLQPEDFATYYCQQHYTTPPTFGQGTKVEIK : 3.48
